- assayedSystem: HLA-A*11:01 (human)
- experimentalProtocol: REVEAL MHC-peptide binding assay, recombinant HLA-A*11:01
- testSettings: remark: other sources report otherwise
experimentalReadout: In Vitro Score (% of positive control peptide)

Check out these entries, answers already filled in.
| binder | resultValue |
| --- | --- |
| VAFIIFWVS [… (SEQ ID NO: 23)] | 25.1 |
| WVARGRKKL [… (SEQ ID NO: 49)] | 13.8 |
| AFIIFWVAR [… (SEQ ID NO: 45)] | 51.8 |

a. IFWVKRGNK [… (SEQ ID NO: 74)]
b. WVKRGSKKL [… (SEQ ID NO: 60)]
Problem: Return label of the item with the larger In Vitro Score (% of positive control peptide). Candidates: a , b . Give the chosen item's label as your response.
Solution: a
(a: 45.9, b: 11.8)

The measured values listed here are drawn from patent US20180355014A1.
